Test system: MDA-MB-231 cells
Assay: Cell viability MTT assay, MDA-MB-231
Type: cell-based
Settings: Homo sapiens, normoxia, read-out: Cell Viability (%) MDA-MB-231 Normoxia
reported.endpoint: viability at 100 µM
The reply should read as a number followed by its unit.

Before answering, review these 3 worked examples.
[
  {
    "compound": "Cc1cc(=O)oc2cc(OCc3cn([C@H]4O[C@@H](C)[C@H](O)[C@@H](O)[C@H]4O)nn3)ccc12 [Compound 10o]",
    "endpoint.value": "60.3%"
  },
  {
    "compound": "CC(=O)Nc1nnc(S(N)(=O)=O)s1 [AAZ, acetazolamide, reference compound]",
    "endpoint.value": "84.7%"
  },
  {
    "compound": "O=c1ccc2ccc(OCc3cn([C@@H]4O[C@H](CO)[C@@H](O)[C@H](O)[C@@H]4O)nn3)cc2o1 [Compound 10c]",
    "endpoint.value": "55.2%"
  }
]

// sample N[C@@H]1[C@@H](O)[C@H](O)[C@@H](CO)O[C@H]1n1cc(COc2ccc3ccc(=O)oc3c2)nn1 [Compound 10d] , its viability at 100 µM was 60.2%

Cited source: paper PMC9458059
